TARGET_OF_ASSAY: T1, HCV Core1-169 (HCV-1, UniProt P26664 1-169)
T1 construct: also called Solid Phase HCV Core
T1 sequence: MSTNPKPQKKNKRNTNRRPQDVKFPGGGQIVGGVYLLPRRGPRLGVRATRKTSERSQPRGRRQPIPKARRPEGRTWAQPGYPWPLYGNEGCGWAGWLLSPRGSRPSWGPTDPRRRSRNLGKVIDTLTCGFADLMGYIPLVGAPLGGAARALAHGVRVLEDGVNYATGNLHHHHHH
METHOD_DESCRIPTION: sandwich EIA, capture 208A-557
MEASURED_PARAMETER: OD492 (OD)
Please state the figure in OD; there is no need to write the unit.

Known OD492 results, listed for orientation:
• HCV 208B-612 (antibody, V domains shown) VH: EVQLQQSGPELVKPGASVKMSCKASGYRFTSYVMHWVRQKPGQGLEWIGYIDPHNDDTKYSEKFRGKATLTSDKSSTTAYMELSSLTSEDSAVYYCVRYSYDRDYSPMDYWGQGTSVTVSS VL: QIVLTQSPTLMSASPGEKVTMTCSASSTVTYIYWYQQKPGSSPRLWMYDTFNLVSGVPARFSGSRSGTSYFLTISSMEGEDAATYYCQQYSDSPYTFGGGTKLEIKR = 0.23
• HCV 208A-293 (antibody, V domains shown) VH: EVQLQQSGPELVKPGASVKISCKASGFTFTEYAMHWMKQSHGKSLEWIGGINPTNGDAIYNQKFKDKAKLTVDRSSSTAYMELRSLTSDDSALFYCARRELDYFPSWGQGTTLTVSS VL: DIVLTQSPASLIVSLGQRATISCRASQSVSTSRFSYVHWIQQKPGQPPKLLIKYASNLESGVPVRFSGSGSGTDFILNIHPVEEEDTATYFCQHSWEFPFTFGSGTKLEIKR = 0.52
• HCV 208A-207 (antibody, V domains shown) VH: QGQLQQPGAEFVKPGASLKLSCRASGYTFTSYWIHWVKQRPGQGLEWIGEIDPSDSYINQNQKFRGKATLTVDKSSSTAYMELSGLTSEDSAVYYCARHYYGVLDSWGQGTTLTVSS VL: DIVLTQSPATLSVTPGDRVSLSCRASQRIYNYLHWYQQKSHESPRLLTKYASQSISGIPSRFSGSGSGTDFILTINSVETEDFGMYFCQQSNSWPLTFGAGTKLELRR = 0.82

Now examine the next entry.
# query: OD492 of entry HCV 208A-557 (antibody, V domains shown) VH: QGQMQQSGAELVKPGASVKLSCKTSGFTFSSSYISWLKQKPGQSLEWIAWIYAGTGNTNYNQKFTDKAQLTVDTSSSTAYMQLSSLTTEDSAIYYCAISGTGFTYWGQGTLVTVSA VL: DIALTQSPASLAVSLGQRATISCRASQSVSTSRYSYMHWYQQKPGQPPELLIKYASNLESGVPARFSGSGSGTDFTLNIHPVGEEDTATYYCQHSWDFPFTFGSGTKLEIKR
0.32

Source of measurements: patent US9371374
